ratio (cynomolgus/human IC50) listing for selected binders.
Study system: T1, cynomolgus CX3CR1 (cynomolgus, UniProt P49238 1-355 (human entry))
T1 construct: transiently expressed on HEK293T cells; also called cyCX3CR1; cyno CX3CR1
T1 chain: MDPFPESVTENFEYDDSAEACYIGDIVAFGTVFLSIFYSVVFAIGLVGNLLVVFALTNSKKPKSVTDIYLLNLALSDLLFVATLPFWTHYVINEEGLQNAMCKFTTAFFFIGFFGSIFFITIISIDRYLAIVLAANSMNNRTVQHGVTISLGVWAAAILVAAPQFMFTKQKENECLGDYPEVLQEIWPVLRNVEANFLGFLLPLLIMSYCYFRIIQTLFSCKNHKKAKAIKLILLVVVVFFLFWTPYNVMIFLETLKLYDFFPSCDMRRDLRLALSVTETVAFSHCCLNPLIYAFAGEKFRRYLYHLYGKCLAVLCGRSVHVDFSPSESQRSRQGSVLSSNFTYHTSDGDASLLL
Procedure text: A647-fractalkine competition FACS, cynomolgus against human CX3CR1

Sample records with ratio (cynomolgus/human IC50):
CX3CR1BII017 (VHH, expressed in E. coli as described for the monovalent VHHs) EVQLVESGGGSVQAGESLRLSCAASGSIFSSNAMAWYRQAPPGKQRDLVALINSVGITKYADSVKGRFTISSDNAKNTVYLEMNSLKPEDTAVYYCTSDGRRGWDTRYWGQGTQVTVSSGGGGSGGGGSGGGGSGGGGSGGGGSGGGGSGGGGSEVQLVESGGGSVQAGESLRLSCAASGSIFSSNAMAWYRQAPPGKQRDLVALINSVGITKYADSVKGRFTISSDNAKNTVYLEMNSLKPEDTAVYYCTSDGRRGWDTRYWGQGTQVTVSS
5.34
CX3CR1BII018 (VHH, A647 label where used as labeled competitor (Example 14), expressed in E. coli as described for the monovalent VHHs; also called A647-018; A647 labeled CX3CR1BII018) EVQLVESGGGSVQAGESLRLSCAASGSIFSSNAMAWYRQAPGKRRDLVAAINSVGVTKYADSVKGRFTISRDNAKNTVYLQMNSLKPEDTAVYYCTSDPRRGWDTRYWGQGTQVTVSSGGGGSGGGGSGGGGSGGGGSGGGGSGGGGSGGGGSEVQLVESGGGSVQAGESLRLSCAASGSIFSSNAMAWYRQAPGKRRDLVAAINSVGVTKYADSVKGRFTISRDNAKNTVYLQMNSLKPEDTAVYYCTSDPRRGWDTRYWGQGTQVTVSS
3.33

Reported ratio (cynomolgus/human IC50) of CX3CR1BII016 (VHH, expressed in E. coli as described for the monovalent VHHs) EVQLVESGGGSVQAGESLRLSCAASGSIFSSNAMAWYRQAPGKQRDLVAVINSVGITKYADSVKGRFTISGDNAKNTVYLQMNSLKPEDTAVYYCTSDARRGWDTRYWGQGTQVTVSSGGGGSGGGGSGGGGSGGGGSGGGGSGGGGSGGGGSEVQLVESGGGSVQAGESLRLSCAASGSIFSSNAMAWYRQAPGKQRDLVAVINSVGITKYADSVKGRFTISGDNAKNTVYLQMNSLKPEDTAVYYCTSDARRGWDTRYWGQGTQVTVSS : 3.67
